Quick reference: koff of the listed items.
# Assay System: T1, StrepII-tagged Mesothelin (human mesothelin isoform 2, NP_037536, with C-terminal strepII-tag) (human, UniProt Q13421-1 296-606, limits assumed)
# T1 construct: also called Mesothelin-strep; soluble antigen
# T1 sequence (Q13421 other isoform, or with tags, fused parts or gaps limits assumed): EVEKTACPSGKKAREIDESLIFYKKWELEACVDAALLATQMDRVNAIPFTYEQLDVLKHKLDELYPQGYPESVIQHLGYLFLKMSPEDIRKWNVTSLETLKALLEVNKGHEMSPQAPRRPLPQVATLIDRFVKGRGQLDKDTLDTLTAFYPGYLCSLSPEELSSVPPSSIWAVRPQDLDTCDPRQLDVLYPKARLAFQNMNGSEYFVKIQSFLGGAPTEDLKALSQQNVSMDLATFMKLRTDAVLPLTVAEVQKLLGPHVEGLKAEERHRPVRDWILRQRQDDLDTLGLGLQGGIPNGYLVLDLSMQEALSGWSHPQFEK
# Measurement Protocol: SPR (Biacore T200), mAb from 293T supernatant captured by anti-human Fc-gamma IgG, Mesothelin-strep 10 to 1.25 nM as analyte, 25 °C, 1:1 model
Property: koff

INSERT INTO measurements (binder, property, measurement) VALUES
  ('parental anti-Mesothelin mouse mAb MN, produced as chimeric full-length IgG1 antibody with human constant regions (antibody, V domains shown, also called VH-MN (parental mouse); parental chimeric antibody) VH: QVQLQQPGAELVKPGASMKLSCKASGYTFTSYWMHWVKQRPGQGLEWIGMIHPNSDNTIYYEKFKSKATLTVDKSSSTAYMQLSSLTSEDSAVYYCAIIITPVVPKFDYWGQGTTLTVSS VL: DIVMTQSHQFMSTSVGDRVSVTCKASHDVGTSVAWYQQKPGQSPKLLIYWASTRHTGVPDRFTGSGSGTDFTLTISNVQSEDLADYFCQQYSSYPLTFGAGTKLELK', 'koff', '6.81e-05 s⁻¹'),
  ('huMN5-3 (antibody, V domains shown, No sheet says in words that huMN5b is huMN5-3) VH: QVQLQQSGAELVKPGASLKLSCKASGYTFTSYWMHWVRQAPGQGLEWIGAIHPNSDNTIYYQKFKSRFTITVDKSTSTAYMQLSSLTSEDTAVYYCAIIITPVVPKFDYWGQGTTVTVSS VL: DIVMTQSPDSLAVSLGERATITCKSSHDVGTSLAWYQQKPGQPPKLLIYWASTRESGVPDRFSGSGSGTDFTLTISSLQAEDVAVYYCQQYSSYPLTFGQGTKLEIK', 'koff', '0.000115 s⁻¹'),
  ('huMN5-2 (antibody, V domains shown, No sheet says in words that huMN5a is huMN5-2) VH: QVQLQQSGAELVKPGASLKLSCKASGYTFTSYWMHWVRQAPGQGLEWIGAIHPNSDNTIYYQKFKSRFTITVDKSTSTAYMQLSSLTSEDTAVYYCAIIITPVVPKFDYWGQGTTVTVSS VL: DIVMTQSSSFMSASVGDRVSITCKASHDVGTSLAWYQQKPGQSPKLLIYWASTRQTGVPDRFSGSGSGTDFTLTISSVQSEDVATYFCQQYSSYPLTFGQGTKLEIK', 'koff', '0.000218 s⁻¹'),
  ('huMN3-1 (antibody, V domains shown) VH: QVQLQQSGAELVKPGASMKLSCKASGYTFTSYWMHWVRQAPGQGLEWIGAIHPNSDNTIYYQKFKSRVTLTVDKSISTAYMQLSSLTSEDTAVYYCAIIITPVVPKFDYWGQGTTVTVSS VL: DIQMTQSPSFLSASVGDRVTITCRASHDVGTSLAWYQQKPGQAPKLLIYWASTLQTGVPSRFSGSGSGTEFTLTISSLQPEDFATYYCQQYSSYPLTFGPGTTVDMK', 'koff', '0.000274 s⁻¹');
